Where these numbers come from: patent US4341779A

- Assay Remarks: in vivo
- Condition Details: mouse, po
Recorded Metric: LD50 (mg/kg)
Give your result in mg/kg as a bare value.

Which LD50 is listed for CC(C)(C)C(=O)OCOC(=O)[C@@H]1N2C(=O)[C@@H](/N=C/N3CCCCCC3)[C@H]2SC1(C)C [Pivmecillinam, reference compound] ?
2600

----------
- Condition Details: rat, in vivo, 60 min
Where a name gives a salt, the structure may show the parent alone.
Recorded Metric: level of free acid in blood serum
Number first, unit second: that is the form wanted.

Which level of free acid in blood serum is listed for CC(C)(C)C(=O)OCOC(=O)[C@@H]1N2C(=O)[C@@H](/N=C/N3CCCCCC3)[C@H]2SC1(C)C [Pivmecillinam, reference compound] ?
14700 ng/mL

Which level of free acid in blood serum is listed for CC(=O)COC(=O)[C@@H]1N2C(=O)[C@@H](N=CN3CCCCCC3)[C@H]2SC1(C)C [Hydrochloride of methylacetic ester of 6-/N,N1', 6'-hexylene] ?
14400 ng/mL

Which level of free acid in blood serum is listed for CC(=O)COC(=O)[C@@H]1N2C(=O)[C@@H](N=CN3CCCCCC3)[C@H]2SC1(C)C [Methylacetic ester of 6-N,N-1', 6'-hexyleneformamidine/-peni] ?
16900 ng/mL

----------
- Assay Remarks: LD50 after administration per os in mice
- Condition Details: mouse, in vivo, po, LD50, mice, per os
Recorded Metric: LD50

Which LD50 is listed for `CC(=O)COC(=O)[C@@H]1N2C(=O)[C@@H](N=CN3CCCCCC3)[C@H]2SC1(C)C` ?
> 3000 mg/kg

----------
- Condition Details: rat, in vivo, po, 5 h
Recorded Metric: level of free acid in blood serum (ng/mL)
Give your result in ng/mL as a bare value.

Which level of free acid in blood serum is listed for CC1(C)S[C@@H]2[C@H](N=CN3CCCCCC3)C(=O)N2[C@H]1C(=O)O [reference compound] ?
600

----------
- Condition Details: rat, in vivo, po, 0.25 h
Recorded Metric: level of free acid in blood serum (ng/mL)
Give your result in ng/mL as a bare value.

Which level of free acid in blood serum is listed for CC1(C)S[C@@H]2[C@H](N=CN3CCCCCC3)C(=O)N2[C@H]1C(=O)O [reference compound] ?
1700

----------
For each record, write down the corresponding level of free acid in blood serum.
- Condition Details: rat, in vivo, 300 min
Counter-ions that a name gives are not always drawn.
Give your result in ng/mL as a bare value.

Which level of free acid in blood serum is listed for CC(=O)COC(=O)[C@@H]1N2C(=O)[C@@H](N=CN3CCCCCC3)[C@H]2SC1(C)C [Hydrochloride of methylacetic ester of 6-/N,N1', 6'-hexylene] ?
800

Which level of free acid in blood serum is listed for CC(C)(C)C(=O)OCOC(=O)[C@@H]1N2C(=O)[C@@H](/N=C/N3CCCCCC3)[C@H]2SC1(C)C [Pivmecillinam, reference compound] ?
1500

Which level of free acid in blood serum is listed for CC(=O)COC(=O)[C@@H]1N2C(=O)[C@@H](N=CN3CCCCCC3)[C@H]2SC1(C)C [Methylacetic ester of 6-N,N-1', 6'-hexyleneformamidine/-peni] ?
600

----------
- Condition Details: rat, in vivo, 240 min
Counter-ions that a name gives are not always drawn.
Recorded Metric: level of free acid in blood serum (µg/mL)
Give your result in µg/mL as a bare value.

Which level of free acid in blood serum is listed for CC(=O)COC(=O)[C@@H]1N2C(=O)[C@@H](N=CN3CCCCCC3)[C@H]2SC1(C)C [Methylacetic ester of 6-N,N-1', 6'-hexyleneformamidine/-peni] ?
0.8

Which level of free acid in blood serum is listed for CC(C)(C)C(=O)OCOC(=O)[C@@H]1N2C(=O)[C@@H](/N=C/N3CCCCCC3)[C@H]2SC1(C)C [Pivmecillinam, reference compound] ?
1.8

Which level of free acid in blood serum is listed for CC(=O)COC(=O)[C@@H]1N2C(=O)[C@@H](N=CN3CCCCCC3)[C@H]2SC1(C)C [Hydrochloride of methylacetic ester of 6-/N,N1', 6'-hexylene] ?
1
